assay.system: PIM1 (human)
assay.overview: radiometric filter-binding kinase assay, Kinase HotSpot
condition.parameters: compound 0.5 µM; ATP 10 µM
readout: residual activity (%)
Number in %, nothing else.

Endpoint output: residual activity of CC(C)N(CCC(=O)c1ccc2ccccc2c1)Cc1ccccc1 . Value? 100

Endpoint output: residual activity of O=C(Nc1cccc(Nc2nccc(Nc3cccc(C(F)(F)F)c3)n2)c1)C1CC1 . Value? 103

Endpoint output: residual activity of Nc1ncnc2c1c(-c1ccc(Oc3ccccc3)cc1)cn2C1CCCC1 . Value? 92.4

Endpoint output: residual activity of CCN(CC)C(=O)c1ccc(Nc2nc(OCC3CCCCC3)c3nc[nH]c3n2)cc1 . Value? 95.6

Endpoint output: residual activity of Nc1ncnc2[nH]nc(Nc3ccc(F)cc3)c12 . Value? 95.5

Endpoint output: residual activity of Cc1ccc(NC2=CC(=O)c3sc(C)nc3C2=O)cc1 . Value? 96.8

Endpoint output: residual activity of Cc1[nH]c(/C=C2\C(=O)Nc3ccc(S(=O)(=O)N(C)c4cccc(Cl)c4)cc32)c(C)c1C(=O)N1CCN(C)CC1 . Value? 103

Endpoint output: residual activity of Nc1cccc(-c2cc3c(Oc4cccc(O)c4)ncnc3[nH]2)c1 . Value? 85.9

Endpoint output: residual activity of O=C1NC(=O)C(c2cn(CCCn3ccnc3)c3ccccc23)=C1Nc1ccccc1 . Value? 79.1

Endpoint output: residual activity of COc1ccc(COc2ccc(Cc3cnc(N)nc3N)cc2OC)cc1 . Value? 104

Endpoint output: residual activity of CCC(=O)Nc1ccc2ncnc(Nc3cccc(Br)c3)c2c1 . Value? 85.3
